Origin of values: ChEMBL document CHEMBL1132032

# Target Under Test: Transient receptor potential cation channel subfamily V member 1 (Rattus norvegicus, UniProt O35433)
# Sequence (O35433 whole entry): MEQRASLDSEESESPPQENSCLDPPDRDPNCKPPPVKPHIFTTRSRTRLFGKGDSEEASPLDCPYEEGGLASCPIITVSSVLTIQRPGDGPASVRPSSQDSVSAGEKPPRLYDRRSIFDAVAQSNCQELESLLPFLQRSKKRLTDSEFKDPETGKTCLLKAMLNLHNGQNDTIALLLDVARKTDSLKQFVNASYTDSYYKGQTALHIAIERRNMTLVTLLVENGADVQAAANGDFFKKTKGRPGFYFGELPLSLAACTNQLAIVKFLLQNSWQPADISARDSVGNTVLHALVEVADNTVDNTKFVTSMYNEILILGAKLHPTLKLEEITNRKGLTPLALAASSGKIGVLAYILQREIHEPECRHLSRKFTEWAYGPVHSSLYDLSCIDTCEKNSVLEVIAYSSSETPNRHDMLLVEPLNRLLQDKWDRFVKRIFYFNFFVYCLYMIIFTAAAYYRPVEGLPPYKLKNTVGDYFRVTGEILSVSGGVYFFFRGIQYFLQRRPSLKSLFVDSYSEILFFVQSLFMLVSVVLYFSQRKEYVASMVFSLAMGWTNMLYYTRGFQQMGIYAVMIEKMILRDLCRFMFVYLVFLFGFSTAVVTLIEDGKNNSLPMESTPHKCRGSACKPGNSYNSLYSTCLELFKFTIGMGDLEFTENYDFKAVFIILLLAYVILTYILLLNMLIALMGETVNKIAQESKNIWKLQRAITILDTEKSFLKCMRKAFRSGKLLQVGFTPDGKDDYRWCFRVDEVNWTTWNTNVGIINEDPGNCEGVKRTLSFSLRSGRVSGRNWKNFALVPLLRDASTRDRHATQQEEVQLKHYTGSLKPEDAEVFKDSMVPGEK
Observed Property: Ki (µM)
Numbers only, in µM.

{"Molecule": "COc1cc(CC(=O)NCC(COCc2ccccc2)COC(C)=O)ccc1O (stereo not drawn)", "Unit Descriptor": "µM", "Ki": 78}
{"Molecule": "COc1cc(CC(=O)NCC(CCc2ccccc2)COC(C)=O)ccc1O (stereo not drawn)", "Unit Descriptor": "µM", "Ki": 45.2}
{"Molecule": "COc1cc(CC(=O)NCC(COC(C)=O)Cc2ccccc2)ccc1O (stereo not drawn)", "Unit Descriptor": "µM", "Ki": 19.3}
{"Molecule": "COc1cc(CC(=O)NC/C(=C/Cc2ccccc2)COC(C)=O)ccc1O", "Unit Descriptor": "µM", "Ki": 29.2}
{"Molecule": "COc1cc(CC(=O)NCC(CCc2ccccc2)COC(=O)C(C)(C)C)ccc1O (stereo not drawn)", "Unit Descriptor": "µM", "Ki": 0.295}
{"Molecule": "C=C(C)[C@]12C[C@@H](C)[C@@]34O[C@](Cc5ccccc5)(O[C@@H]1[C@@H]3C=C(COC(=O)Cc1ccc(O)c(OC)c1)C[C@]1(O)C(=O)C(C)=C[C@@H]41)O2", "Unit Descriptor": "µM", "Ki": "2.3e-05"}

Go through the list and state Ki for each entry.
1. COc1cc(CC(=O)NCC(/C=C/C(=O)OC(C)(C)C)Cc2ccccc2)ccc1O (stereo not drawn)
2. COc1cc(CC(=O)NC/C(=C\Cc2ccccc2)COC(=O)C(C)(C)C)ccc1O
3. COc1cc(CC(=O)NC/C(=C\Cc2ccccc2)COC(C)=O)ccc1O

## Result
1: 0.48; 2: 1.22; 3: 12.9
